Attribution: paper PMC11555678

System: C. neoformans apt2Δ
Assay: microbe, parasite or virus in culture
Format: cell-based, Cryptococcus neoformans
Details: Cryptococcus neoformans, 48 h

compound: C[C@@H]1[C@H](O)[C@@H](C)/C=C/C=C/C=C/C=C/C=C/C=C/C=C/[C@H](O[C@@H]2O[C@H](C)[C@@H](O)[C@H](N)[C@@H]2O)C[C@@H]2O[C@](O)(C[C@@H](O)C[C@@H](O)[C@H](O)CC[C@@H](O)C[C@@H](O)CC(=O)O[C@H]1C)C[C@H](O)[C@H]2C(=O)O [AMB, amphotericin B]
system.under.test: C. neoformans apt2Δ
MIC, µg/mL: 0.25
//
compound: CC[C@H](C)C[C@H](C)CCCCCCCCC(=O)N[C@H]1C[C@@H](O)[C@@H](NCCN)NC(=O)[C@@H]2[C@@H](O)CCN2C(=O)[C@H]([C@H](O)CCN)NC(=O)[C@H]([C@H](O)[C@@H](O)c2ccc(O)cc2)NC(=O)[C@@H]2C[C@@H](O)CN2C(=O)[C@H]([C@@H](C)O)NC1=O [CAS, caspofungin]
system.under.test: C. neoformans apt2Δ
MIC, µg/mL: 16
//
compound: CCC(C)n1ncn(-c2ccc(N3CCN(c4ccc(OCC5COC(Cn6cncn6)(c6ccc(Cl)cc6Cl)O5)cc4)CC3)cc2)c1=O (stereo not shown) [ITR, itraconazole]
system.under.test: C. neoformans apt2Δ
MIC, µg/mL: 0.125
//
compound: OC(Cn1cncn1)(Cn1cncn1)c1ccc(F)cc1F [FLC, fluconazole]
system.under.test: C. neoformans apt2Δ
MIC, µg/mL: 2

---

System: C. auris B11245
Type: cell-based, Candida auris
Settings: +0 μg/mL KKOO-NH2 (control); RPMI1640, 37 °C, 48 h; CAS: paradoxical growth, MIC = well with <20% growth
property.name: MIC of antifungal in combination with KKOO-NH2 (µg/mL)

molecule: C[C@@H]1[C@H](O)[C@@H](C)/C=C/C=C/C=C/C=C/C=C/C=C/C=C/[C@H](O[C@@H]2O[C@H](C)[C@@H](O)[C@H](N)[C@@H]2O)C[C@@H]2O[C@](O)(C[C@@H](O)C[C@@H](O)[C@H](O)CC[C@@H](O)C[C@@H](O)CC(=O)O[C@H]1C)C[C@H](O)[C@H]2C(=O)O
modifier: =
number: 1
//
molecule: OC(Cn1cncn1)(Cn1cncn1)c1ccc(F)cc1F
modifier: >
number: 128
//
molecule: CCC(C)n1ncn(-c2ccc(N3CCN(c4ccc(OCC5COC(Cn6cncn6)(c6ccc(Cl)cc6Cl)O5)cc4)CC3)cc2)c1=O (stereo not shown)
modifier: =
number: 0.5
//
molecule: CC[C@H](C)C[C@H](C)CCCCCCCCC(=O)N[C@H]1C[C@@H](O)[C@@H](NCCN)NC(=O)[C@@H]2[C@@H](O)CCN2C(=O)[C@H]([C@H](O)CCN)NC(=O)[C@H]([C@H](O)[C@@H](O)c2ccc(O)cc2)NC(=O)[C@@H]2C[C@@H](O)CN2C(=O)[C@H]([C@@H](C)O)NC1=O
modifier: =
number: 1

---

Parameter: MIC of antifungal in combination with KKOO-NH2. Scope: all listed entries.
Tested on: C. glabrata 2001
Format: cell-based, Candida glabrata
Conditions: +1 μg/mL KKOO-NH2; RPMI1640, 37 °C, 48 h
property.name: MIC of antifungal in combination with KKOO-NH2

molecule: C[C@@H]1[C@H](O)[C@@H](C)/C=C/C=C/C=C/C=C/C=C/C=C/C=C/[C@H](O[C@@H]2O[C@H](C)[C@@H](O)[C@H](N)[C@@H]2O)C[C@@H]2O[C@](O)(C[C@@H](O)C[C@@H](O)[C@H](O)CC[C@@H](O)C[C@@H](O)CC(=O)O[C@H]1C)C[C@H](O)[C@H]2C(=O)O
result: 0.5 µg/mL
//
molecule: OC(Cn1cncn1)(Cn1cncn1)c1ccc(F)cc1F
result: 8 µg/mL
//
molecule: CC[C@H](C)C[C@H](C)CCCCCCCCC(=O)N[C@H]1C[C@@H](O)[C@@H](NCCN)NC(=O)[C@@H]2[C@@H](O)CCN2C(=O)[C@H]([C@H](O)CCN)NC(=O)[C@H]([C@H](O)[C@@H](O)c2ccc(O)cc2)NC(=O)[C@@H]2C[C@@H](O)CN2C(=O)[C@H]([C@@H](C)O)NC1=O
result: 0.5 µg/mL
//
molecule: CCC(C)n1ncn(-c2ccc(N3CCN(c4ccc(OCC5COC(Cn6cncn6)(c6ccc(Cl)cc6Cl)O5)cc4)CC3)cc2)c1=O (stereo not shown)
result: 0.25 µg/mL

---

Test system: C. glabrata 2001
Type: cell-based, Candida glabrata
Settings: +0 μg/mL KKOO (control); RPMI1640, 37 °C, 48 h
property.name: MIC of antifungal in combination with KKOO (µg/mL)

molecule: C[C@@H]1[C@H](O)[C@@H](C)/C=C/C=C/C=C/C=C/C=C/C=C/C=C/[C@H](O[C@@H]2O[C@H](C)[C@@H](O)[C@H](N)[C@@H]2O)C[C@@H]2O[C@](O)(C[C@@H](O)C[C@@H](O)[C@H](O)CC[C@@H](O)C[C@@H](O)CC(=O)O[C@H]1C)C[C@H](O)[C@H]2C(=O)O
number: 1
--
molecule: CC[C@H](C)C[C@H](C)CCCCCCCCC(=O)N[C@H]1C[C@@H](O)[C@@H](NCCN)NC(=O)[C@@H]2[C@@H](O)CCN2C(=O)[C@H]([C@H](O)CCN)NC(=O)[C@H]([C@H](O)[C@@H](O)c2ccc(O)cc2)NC(=O)[C@@H]2C[C@@H](O)CN2C(=O)[C@H]([C@@H](C)O)NC1=O
number: 0.5
--
molecule: CCC(C)n1ncn(-c2ccc(N3CCN(c4ccc(OCC5COC(Cn6cncn6)(c6ccc(Cl)cc6Cl)O5)cc4)CC3)cc2)c1=O (stereo not shown)
number: 0.5
--
molecule: OC(Cn1cncn1)(Cn1cncn1)c1ccc(F)cc1F
number: 8

---

Test system: C. neoformans H99
Type: cell-based, Cryptococcus neoformans
Conditions: +0 μg/mL (FITC)KKOO; RPMI1640, 37 °C
property.name: MIC of antifungal in combination with (FITC)KKOO (µg/mL)

compound: OC(Cn1cncn1)(Cn1cncn1)c1ccc(F)cc1F
unit.string: µg/mL
number: 2
--
compound: CC[C@H](C)C[C@H](C)CCCCCCCCC(=O)N[C@H]1C[C@@H](O)[C@@H](NCCN)NC(=O)[C@@H]2[C@@H](O)CCN2C(=O)[C@H]([C@H](O)CCN)NC(=O)[C@H]([C@H](O)[C@@H](O)c2ccc(O)cc2)NC(=O)[C@@H]2C[C@@H](O)CN2C(=O)[C@H]([C@@H](C)O)NC1=O
unit.string: µg/mL
number: 16
--
compound: CCC(C)n1ncn(-c2ccc(N3CCN(c4ccc(OCC5COC(Cn6cncn6)(c6ccc(Cl)cc6Cl)O5)cc4)CC3)cc2)c1=O (stereo not shown)
unit.string: µg/mL
number: 0.125
--
compound: C[C@@H]1[C@H](O)[C@@H](C)/C=C/C=C/C=C/C=C/C=C/C=C/C=C/[C@H](O[C@@H]2O[C@H](C)[C@@H](O)[C@H](N)[C@@H]2O)C[C@@H]2O[C@](O)(C[C@@H](O)C[C@@H](O)[C@H](O)CC[C@@H](O)C[C@@H](O)CC(=O)O[C@H]1C)C[C@H](O)[C@H]2C(=O)O
unit.string: µg/mL
number: 0.5

---

Tested on: C. neoformans cdc50Δ
Test: microbe, parasite or virus in culture
Type: cell-based, Cryptococcus neoformans
Conditions: Table S1; unit and conditions not given (MICs elsewhere in μg/mL)
property.name: MIC (SAR screen peptides)

monomer.sequence: WGGIKANYA [K6A, alanine substituted peptide]
result: > 128

monomer.sequence: WGGIAANYA [KKAA, alanine substituted peptide]
result: > 128

monomer.sequence: WGGIAKNYA [K5A, alanine substituted peptide]
result: > 128

---

Tested on: C. neoformans H99
Experiment: microbe, parasite or virus in culture
Assay type: cell-based, Cryptococcus neoformans
Conditions: Table S1; unit and conditions not given (MICs elsewhere in μg/mL)

substance: WGGIOKNYA [K5O, single ornithine-substituted AW9-Ma derivative]
MIC (SAR screen peptides): > 128
--
substance: Myristic acid {Dap(FITC)}WGGIOONYA [(FITC)KKOO, FITC labeled version of KKOO]
MIC (SAR screen peptides): > 128
--
substance: WGGIOONY{D-Ala} [A9a, D-Ala9 epimer of KKOO]
MIC (SAR screen peptides): > 128
